Molecular target: Lysine-specific demethylase 4C (Homo sapiens)
Sequence (Q9H3R0 whole entry): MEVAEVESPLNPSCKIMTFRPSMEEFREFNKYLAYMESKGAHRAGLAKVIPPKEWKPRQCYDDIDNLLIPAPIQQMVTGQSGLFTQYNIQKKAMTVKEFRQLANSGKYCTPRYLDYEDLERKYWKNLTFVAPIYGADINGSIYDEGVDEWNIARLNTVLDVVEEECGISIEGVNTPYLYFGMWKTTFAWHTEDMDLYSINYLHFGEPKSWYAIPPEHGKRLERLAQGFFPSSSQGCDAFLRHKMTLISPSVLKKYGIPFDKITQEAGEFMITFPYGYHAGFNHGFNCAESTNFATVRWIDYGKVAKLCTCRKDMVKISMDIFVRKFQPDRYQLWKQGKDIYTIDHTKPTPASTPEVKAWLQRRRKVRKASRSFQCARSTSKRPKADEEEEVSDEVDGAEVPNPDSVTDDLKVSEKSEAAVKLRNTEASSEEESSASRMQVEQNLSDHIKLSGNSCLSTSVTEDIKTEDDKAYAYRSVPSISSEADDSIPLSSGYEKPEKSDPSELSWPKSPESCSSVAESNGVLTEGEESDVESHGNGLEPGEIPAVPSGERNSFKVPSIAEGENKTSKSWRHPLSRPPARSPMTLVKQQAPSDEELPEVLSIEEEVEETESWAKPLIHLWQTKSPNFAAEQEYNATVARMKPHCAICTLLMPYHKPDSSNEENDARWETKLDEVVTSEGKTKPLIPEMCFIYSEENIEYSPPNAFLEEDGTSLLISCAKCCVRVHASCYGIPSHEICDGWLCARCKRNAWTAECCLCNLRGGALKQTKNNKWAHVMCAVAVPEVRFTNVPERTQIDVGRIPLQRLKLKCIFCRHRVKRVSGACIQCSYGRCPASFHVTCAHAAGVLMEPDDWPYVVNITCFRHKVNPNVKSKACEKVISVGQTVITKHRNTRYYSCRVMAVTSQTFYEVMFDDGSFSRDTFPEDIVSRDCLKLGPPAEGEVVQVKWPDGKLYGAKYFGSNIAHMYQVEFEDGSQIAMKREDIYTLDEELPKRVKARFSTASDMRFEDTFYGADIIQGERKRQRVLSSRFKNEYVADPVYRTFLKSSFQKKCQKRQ
Experiment: inhibition of JMJD2C H3K9me3 demethylation – biochemical, DELFIA europium, cherry-picked samples, dose response (AID 488835)
Type: functional
Active and inactive are the calls of the source. Cut-off read from the data, not from the text of the source: actives have a measured AC50 and inactives only a lower limit.
Observation Type: AC50

Recorded AC50, per entry:
COCCCNC(=O)C1CCN(C(=O)Nc2ccc(Cl)cc2)CC1    44.8 µM (active)
COc1ccc(-c2csc(NNC3=NCCCCC3)n2)cc1    7.08 µM (active)
COC(=O)[C@@H](N)Cc1ccc(O)c(O)c1    11.5 µM (active)

Proceed to the following item.
Record Cc1cc(NS(=O)(=O)c2ccc(Nc3nc(-c4sc(N)nc4C)cs3)cc2)no1 . Reported AC50: 8.48 µM (active)
